Test system: Bel-7402 (human hepatoma cells)
assay-summary: MTT cancer cell growth inhibition
Type: cell-based
settings: Homo sapiens, Bel-7402, 72 h, MTT, 72 hours incubation, Bel-7402 cells; read-out: GI50 Bel-7402
Text: MTT assay principle is yellow MTT can penetrate membrane into the cell, succinic dehydrogenase of the mitochondria in living cells can make exogenous MTT reduction of insoluble in water of blue-violet acicular formazan for crystallization and deposition in the cell, crystallization can be dissolved dimethyl sulfoxide (DMSO) solution, detected its absorbance at 490 nm/570 nm wavelength by enzyme-linked immunosorbent assay, which can reflect the number of cells. […] e) 570 nm readings. […]
observation-type: GI50 (nM)

Reference set (4 entries):
Q: Please provide the recorded GI50 for C/C=C1\NC(=O)c2cccc(n2)CNC(=O)C[C@@H](/C=C/CCSC(=O)CCCCCCC)OC(=O)[C@H](Cc2ccccc2)NC1=O , tested on Bel-7402 (human hepatoma cells).
Ans: 84

Q: Given the entry C/C=C1\NC(=O)c2ccc(SC)c(n2)CNC(=O)C[C@@H](/C=C/CCSC(=O)CCCCCCC)OC(=O)[C@H](C(C)C)NC1=O , what GI50 was observed with Bel-7402 (human hepatoma cells)?
Ans: 63

Q: GET /values?readout=GI50&system=Bel-7402 (human hepatoma cells)&item= C/C=C1\NC(=O)c2cc(F)cc(n2)CNC(=O)C[C@@H](/C=C/CCSC(C)=O)OC(=O)[C@H](CCCCNC(=O)OCC2c3ccccc3-c3ccccc32)NC1=O
Ans: 72

Q: Which GI50 is reported with Bel-7402 (human hepatoma cells) for this entry: C/C=C1\NC(=O)c2nc(ccc2F)CNC(=O)C[C@@H](/C=C/CCSC(C)=O)OC(=O)[C@H](Cc2cccc3ccccc23)NC1=O ?
Ans: 72

[I] C/C=C1\NC(=O)c2cccc(n2)CNC(=O)C[C@@H](/C=C/CCSC(=O)CCCCCCC)OC(=O)[C@@H](C)NC1=O
[II] C/C=C1\NC(=O)c2cccc(n2)CNC(=O)C[C@@H](/C=C/CCS)OC(=O)[C@H](CCCCNC(=O)OCC2c3ccccc3-c3ccccc32)NC1=O
Q: Please indicate which entry, I or II , has the lower recorded GI50 value. Pick one and reply with its label.
Ans: II
(II: 37 nM, I: 75 nM)
